# methodNotes: Partition coefficient is determined in octanol/buffer solution at pH 12
# Format: physicochemical
measuredProperty: logD

| compound | measuredProperty | endpointResult |
| --- | --- | --- |
| CO/N=C(\C#N)C12CCCN(CC1)C2 (stereo unspecified) | logD | 1.49 |
| CO/N=C(\C#N)C1CN2CCC1CC2 (stereo unspecified) | logD | 1.56 |
| CO/N=C(\Cl)C12CCCN(CC1)C2 (stereo unspecified) | logD | 2.12 |
| CO/N=C(\F)C12CCCN(CC1)C2 (stereo unspecified) | logD | 1.01 |
| CO/N=C(/C)C12CCCN(CC1)C2 (stereo unspecified) | logD | 1.65 |
| CO/N=C(\C)C1CN2CCC1CC2 (stereo unspecified) | logD | 1.88 |

###

# targetEntity: Muscarinic acetylcholine receptor M1 (Homo sapiens, UniProt P11229)
# Sequence (P11229 whole entry): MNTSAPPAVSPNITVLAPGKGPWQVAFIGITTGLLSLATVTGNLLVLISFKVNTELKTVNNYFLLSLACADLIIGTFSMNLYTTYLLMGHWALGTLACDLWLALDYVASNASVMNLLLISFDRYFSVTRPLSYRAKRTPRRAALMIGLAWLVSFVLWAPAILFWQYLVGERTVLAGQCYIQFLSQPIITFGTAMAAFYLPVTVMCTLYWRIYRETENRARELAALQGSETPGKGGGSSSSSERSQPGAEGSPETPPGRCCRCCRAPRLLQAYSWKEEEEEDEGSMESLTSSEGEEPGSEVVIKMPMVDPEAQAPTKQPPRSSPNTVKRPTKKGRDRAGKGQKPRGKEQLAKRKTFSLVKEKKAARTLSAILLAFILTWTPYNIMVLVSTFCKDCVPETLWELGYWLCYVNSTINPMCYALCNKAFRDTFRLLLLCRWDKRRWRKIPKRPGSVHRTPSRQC
Rule: IC50 below 1000 nM gives satisfied. Equal to or above 1000 nM gives not satisfied.

| molecule | classAssignment |
| --- | --- |
| CO/N=C(\C#N)[C@@H]1CN2CC[C@H]1C2 | not satisfied |
| CO/N=C/[C@H]1CN2CC[C@H]1C2 | not satisfied |
| CO/N=C(\C#N)C12CCN(CC1)C2 | not satisfied |
| CO/N=C(\C#N)[C@H]1CN2CC[C@H]1C2 | not satisfied |
| CO/N=C(\C#N)[C@H]1CN2CCC1CC2 | satisfied |
| CO/N=C(\C#N)C12CCCN(CC1)C2 (stereo unspecified) | satisfied |

###

# targetEntity: UniProt:P20309
# Sequence (P20309 whole entry): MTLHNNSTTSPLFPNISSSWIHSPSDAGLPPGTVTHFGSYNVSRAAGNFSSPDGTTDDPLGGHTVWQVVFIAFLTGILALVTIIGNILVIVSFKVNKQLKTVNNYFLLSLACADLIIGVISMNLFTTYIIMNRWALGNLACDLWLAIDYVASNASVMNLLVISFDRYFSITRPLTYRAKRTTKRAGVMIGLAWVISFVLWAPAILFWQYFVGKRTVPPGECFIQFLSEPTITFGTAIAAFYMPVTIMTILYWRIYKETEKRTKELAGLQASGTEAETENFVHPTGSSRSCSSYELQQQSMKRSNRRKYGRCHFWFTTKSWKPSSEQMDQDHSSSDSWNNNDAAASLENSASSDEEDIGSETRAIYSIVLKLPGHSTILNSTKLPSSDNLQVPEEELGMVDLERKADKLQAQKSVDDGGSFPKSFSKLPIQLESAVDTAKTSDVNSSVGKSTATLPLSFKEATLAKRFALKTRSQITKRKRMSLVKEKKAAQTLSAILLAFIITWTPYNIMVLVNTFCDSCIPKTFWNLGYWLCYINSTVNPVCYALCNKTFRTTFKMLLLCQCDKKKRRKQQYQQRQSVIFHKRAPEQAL
# methodNotes: In vitro affinity is evaluated, using quinuclidynyl benzylate (QNB)radioligand in human cloned Muscarinic acetylcholine receptor M3

| compound | IC50 |
| --- | --- |
| CO/N=C(\C#N)C12CCCN(CC1)C2 (stereo unspecified) | 28 nM |
